Provide the reported remaining activity at 10 µM of each item.
biological target: CCR2 (Homo sapiens, UniProt P41597); construct: Membranes were prepared from THP-1 cells; endogenous in cells; host or cells: THP-1 cells (membrane preparation); assay: CCR2 receptor membrane binding assay ([125I]MCP-1, THP-1 cell membranes, SPA beads); details: @ 10 μM test compound; THP-1 membranes; read-out: CCR2 % ctrl @ 10 μM
Sequence (P41597 1-360 isoform P41597-2): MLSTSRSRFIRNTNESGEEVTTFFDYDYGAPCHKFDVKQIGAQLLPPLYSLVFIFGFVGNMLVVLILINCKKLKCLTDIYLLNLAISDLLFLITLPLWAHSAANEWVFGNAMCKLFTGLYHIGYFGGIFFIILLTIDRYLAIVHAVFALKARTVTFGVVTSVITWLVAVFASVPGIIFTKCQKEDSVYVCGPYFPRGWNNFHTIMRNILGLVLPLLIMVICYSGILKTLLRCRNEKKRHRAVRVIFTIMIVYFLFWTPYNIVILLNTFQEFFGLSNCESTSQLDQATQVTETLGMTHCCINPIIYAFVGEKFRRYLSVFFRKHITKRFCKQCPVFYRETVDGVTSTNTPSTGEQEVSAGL
The reply should contain only the number, in %.

**Query** Need remaining activity at 10 µM, item Cc1c(NCc2ccc(Cl)c(Cl)c2)ncnc1C(=O)N1CCC(N2CCC(NC(N)=O)CC2)CC1 [Example 187]
**Result** 15

**Query** Need remaining activity at 10 µM, item CCN(C1CCN(C2CCN(C(=O)c3ncnc(NCc4ccc(Cl)c(Cl)c4)c3C)CC2)CC1)S(C)(=O)=O [Example 160]
**Result** 3

**Query** Need remaining activity at 10 µM, item Cc1c(OCC2CCN(c3ccccc3)C2)ncnc1C(=O)N1CCC(N2CCC(N(C)S(C)(=O)=O)CC2)CC1 (stereo not drawn) [Example 295]
**Result** 0

----------
molecular target: CCR2 (Homo sapiens); construct: Membranes were prepared from THP-1 cells; endogenous in cells; test: CCR2 receptor membrane binding assay ([125I]MCP-1, THP-1 cell membranes, SPA beads); details: dissociation constant hKi; [125I]MCP-1 binding to THP-1 membranes
metric name: Ki (µM)
The reply should contain only the number, in µM.

**Query** Which Ki is reported with CCR2 (Homo sapiens) for this entry: Cc1c(NCCc2ccc(Cl)cc2)ncnc1C(=O)N1CCC(N2CCCCC2)CC1 [Example 141] ?
**Result** 0.422

**Query** Which Ki is reported with CCR2 (Homo sapiens) for this entry: Cc1c(NCC2CCCN(c3ccccc3)C2)ncnc1C(=O)N1CCC(N2CCC(N(C)S(C)(=O)=O)CC2)CC1 (stereo not drawn) [Example 155] ?
**Result** 0.076

**Query** Which Ki is reported with CCR2 (Homo sapiens) for this entry: Cc1c(NCc2ccc(C(C)(C)C)cc2)ncnc1C(=O)N1CCCN(C2CCOCC2)CC1 [Example 288] ?
**Result** 0.738

**Query** Which Ki is reported with CCR2 (Homo sapiens) for this entry: Cc1ccc(CNc2ncnc(C(=O)N3CCC(N4CCOCC4)CC3)c2C)cc1Cl [Example 43] ?
**Result** 0.566

**Query** Which Ki is reported with CCR2 (Homo sapiens) for this entry: Cc1c(OCc2ccc(C(C)(C)C)cc2)ncnc1C(=O)N1CCC(N2CCC(N(C)S(C)(=O)=O)CC2)CC1 [Example 296] ?
**Result** 0.069

**Query** Which Ki is reported with CCR2 (Homo sapiens) for this entry: Cc1c(NCCOc2ccccc2)ncnc1C(=O)N1CCC(N2CCC(O)CC2)CC1 [Example 16] ?
**Result** 1.9

**Query** Which Ki is reported with CCR2 (Homo sapiens) for this entry: CO[C@@H]1COCC[C@@H]1N(C)C1CCN(C(=O)c2ncnc(NCc3ccc(C(C)(C)C)cc3)c2C)CC1 [Example 228ha] ?
**Result** 0.032

**Query** Which Ki is reported with CCR2 (Homo sapiens) for this entry: Cc1c(NCc2ccc(Cl)c(Cl)c2)ncnc1C(=O)N1CCC(N2CCC(N3CCCC3=O)CC2)CC1 [Example 192] ?
**Result** 1.45

**Query** Which Ki is reported with CCR2 (Homo sapiens) for this entry: CCS(=O)(=O)N(C)C1CCN(C2CCN(C(=O)c3ncnc(NCc4ccc(C(C)(C)C)cc4)c3C)CC2)CC1 [Example 37] ?
**Result** 0.011

**Query** Which Ki is reported with CCR2 (Homo sapiens) for this entry: Cc1c(/C=C/c2ccc(C(C)(C)C)cc2)ncnc1C(=O)N1CCC(N2CCOCC2)CC1 [Example 271] ?
**Result** 1.61

**Query** Which Ki is reported with CCR2 (Homo sapiens) for this entry: Cc1cccc(C2CCC(CNc3ncnc(C(=O)N4CCC(N5CCC(N(C)S(C)(=O)=O)CC5)CC4)c3C)O2)c1 (stereo not drawn) [Example 159ra] ?
**Result** 0.022

**Query** Which Ki is reported with CCR2 (Homo sapiens) for this entry: Cc1ccc(CNc2ncnc(C(=O)N3CCC(N4CCC(O)CC4)CC3)c2C)cc1Cl [Example 30] ?
**Result** 0.446

**Query** Which Ki is reported with CCR2 (Homo sapiens) for this entry: Cc1c(NCc2ccc(C(F)(F)F)c(Cl)c2)ncnc1C(=O)N1CCC(N2CCC(NS(C)(=O)=O)CC2)CC1 [Example 75] ?
**Result** 0.067

**Query** Which Ki is reported with CCR2 (Homo sapiens) for this entry: Cc1c(NC[C@H]2CCC[C@H](c3ccccc3)C2)ncnc1C(=O)N1CCC(N2CCC(N(C)S(C)(=O)=O)CC2)CC1 [Example 150] ?
**Result** 0.012

**Query** Which Ki is reported with CCR2 (Homo sapiens) for this entry: Cc1ccc(CNc2ncnc(C(=O)N3CCC(N4CCCCC4)CC3)c2C)cc1F [Example 104] ?
**Result** 0.617

**Query** Which Ki is reported with CCR2 (Homo sapiens) for this entry: CCS(=O)(=O)N(C)C1CCN(C2CCN(C(=O)c3ncnc(NCc4ccc(C(F)(F)F)c(Cl)c4)c3C)CC2)CC1 [Example 33] ?
**Result** 0.022

**Query** Which Ki is reported with CCR2 (Homo sapiens) for this entry: Cc1c(NCCc2ccc(Cl)c(Cl)c2)ncnc1C(=O)N1CCC(N2CC[C@@H](O)[C@@H](O)C2)CC1 [Example 246] ?
**Result** 0.306

**Query** Which Ki is reported with CCR2 (Homo sapiens) for this entry: Cc1c(NCc2ccc(Cl)c(Cl)c2)ncnc1C(=O)N1CCC(N2CCCC(O)CC2)CC1 (stereo not drawn) [Example 245] ?
**Result** 0.555

**Query** Which Ki is reported with CCR2 (Homo sapiens) for this entry: CCS(=O)(=O)N(C)C1CCN(C2CCN(C(=O)c3ncnc(NCCc4ccc(Cl)c(Cl)c4)c3C)CC2)CC1 [Example 36] ?
**Result** 0.01

**Query** Which Ki is reported with CCR2 (Homo sapiens) for this entry: CO[C@@H]1COCC[C@@H]1NC1CCN(C(=O)c2ncnc(NCc3ccc(C(C)(C)C)cc3)c2C)CC1 [Example 228ga] ?
**Result** 0.023

**Query** Which Ki is reported with CCR2 (Homo sapiens) for this entry: Cc1c(NCCc2cccc(Cl)c2)ncnc1C(=O)N1CCC(N2CCCCC2)CC1 [Example 139] ?
**Result** 0.443

----------
biological target: CCR2 (Homo sapiens, UniProt P41597); construct: Membranes were prepared from THP-1 cells; endogenous in cells; assay: CCR2 receptor membrane binding assay ([125I]MCP-1, THP-1 cell membranes, SPA beads); details: dissociation constant hKi; [125I]MCP-1 binding to THP-1 membranes
pKi: −log10 of the molar value.
Would you please tag the item YES when its pKi is 6 or above, and NO when it is below?

**Query** Is it the case that Cc1c(NCc2cccc(-c3ccccc3)c2)ncnc1C(=O)N1CCC(N2CCOC(C)C2)CC1 (centres unmarked) has pKi reaching or exceeding 6?
**Result** YES

**Query** Is it the case that CO[C@@H]1COCC[C@H]1NC1CCN(C(=O)c2ncnc(NCc3ccc(C(C)(C)C)cc3)c2C)CC1 [Example 228gn] has pKi reaching or exceeding 6?
**Result** YES

**Query** Is it the case that Cc1c(NCC2CCOCC2)ncnc1C(=O)N1CCC(N2CCC(N(C)S(C)(=O)=O)CC2)CC1 [Example 159ac] has pKi reaching or exceeding 6?
**Result** NO

**Query** Is it the case that "Cc1c(NCc2ccc(C(C)(C)C)cc2)ncnc1C(=O)N1CCC(N2CCC[C@H]2CC(=O)N(C)C)CC1" has pKi reaching or exceeding 6?
**Result** NO

**Query** Is it the case that Cc1c(NCC2CCCC(C(C)C)C2)ncnc1C(=O)N1CCC(N2CCC(N(C)S(C)(=O)=O)CC2)CC1 (centres unmarked) [Example 159zb] has pKi reaching or exceeding 6?
**Result** YES

**Query** Is it the case that "Cc1c(OCc2ccc(C(C)(C)C)cc2)ncnc1C(=O)N1CCC(N2CCC(NS(C)(=O)=O)CC2)CC1" has pKi reaching or exceeding 6?
**Result** YES

**Query** Is it the case that "Cc1c(NCc2ccc(C(F)(F)F)c(Cl)c2)ncnc1C(=O)N1CCC(N2CCOCC2)CC1" has pKi reaching or exceeding 6?
**Result** YES

**Query** Is it the case that "Cc1c(NCc2ccc(Cl)cc2)ncnc1C(=O)N1CCC(N2CCC(O)CC2)CC1" has pKi reaching or exceeding 6?
**Result** YES

**Query** Is it the case that C#Cc1c(NC[C@H]2CCC[C@@H](c3ccccc3)C2)ncnc1C(=O)N1CCC(N2CCC(N(C)S(C)(=O)=O)CC2)CC1 [Example 275dl] has pKi reaching or exceeding 6?
**Result** YES

**Query** Is it the case that CO[C@@H]1COCC[C@@H]1NC1CCN(C(=O)c2ncnc(NC[C@H]3CCC[C@@H](c4ccccc4)C3)c2C)CC1 [Example 275di] has pKi reaching or exceeding 6?
**Result** YES

**Query** Is it the case that "Cc1c(NCc2ccc(C(C)(C)C)cc2)ncnc1C(=O)N1CCC(N2CCC(O)CC2)CC1" has pKi reaching or exceeding 6?
**Result** YES

**Query** Is it the case that "Cc1c(CCc2ccc(C(C)(C)C)cc2)ncnc1C(=O)N1CCC(N2CCC(N(C)S(C)(=O)=O)CC2)CC1" has pKi reaching or exceeding 6?
**Result** YES

**Query** Is it the case that "Cc1noc(C2CCN(C3CCN(C(=O)c4ncnc(NCc5ccc(C(C)(C)C)cc5)c4C)CC3)CC2)n1" has pKi reaching or exceeding 6?
**Result** YES

**Query** Is it the case that Cc1c(NCC2CCCOC2)ncnc1C(=O)N1CCC(N2CCC(N(C)S(C)(=O)=O)CC2)CC1 (centres unmarked) [Example 159bc] has pKi reaching or exceeding 6?
**Result** NO

**Query** Is it the case that "CNC(=O)C1CCN(C2CCN(C(=O)c3ncnc(OCc4ccc(C(C)(C)C)cc4)c3C)CC2)CC1" has pKi reaching or exceeding 6?
**Result** YES

**Query** Is it the case that Cc1cccc(C2CCC(CNc3nc(C)nc(C(=O)N4CCC(N5CCC(N(C)S(C)(=O)=O)CC5)CC4)c3C)O2)c1 (centres unmarked) [Example 159sa] has pKi reaching or exceeding 6?
**Result** YES

**Query** Is it the case that "Cc1ccc(CCNc2ncnc(C(=O)N3CCC(N4CCC(O)CC4)CC3)c2C)cc1C" has pKi reaching or exceeding 6?
**Result** YES

Reference for the values: patent US8835440B2
